assay: Cmax in female athymic nude Foxn1nu mouse brain at 30 mg/kg, po administered as single dose and measured after 24 hrs by LC/MS analysis; format: ADME, organism-based; conditions: in vivo
Reported metric: Cmax

Data request: Looking for the measured Cmax of Cn1ccc([C@H]2C[C@H](N(c3cc(F)c(NC(=O)c4ccnn(-c5ccc(F)cn5)c4=O)cc3F)c3nccn4nccc34)C2)n1 , can you help?
Data returned: 900 ng/mL

====

test: Clearance in female athymic nude Foxn1nu mouse at 1 mg/kg, iv administered as single dose and measured after 24 hrs by LC/MS analysis; assay type: ADME, organism-based; settings: in vivo
Reported metric: clearance (mL/min/kg)
Field: numeric (mL/min/kg). Do not append units.

Data request: Name the reported clearance value associated with the compound Cn1ccc([C@H]2C[C@H](N(c3cc(F)c(NC(=O)c4ccnn(-c5ccc(F)cn5)c4=O)cc3F)c3nccn4nccc34)C2)n1
Data returned: 9.5

====

biological target: Hepatocyte growth factor receptor (Homo sapiens, UniProt P08581, F1200I); experiment: Displacement of tracer 236 from N-terminal GST-tagged recombinant human MET F1200I mutant (956 to end residues) expressed in Sf9 insect cells incubated for 1 hr by TR-FRET assay
Reported metric: pIC50
Please note pIC50 is a logarithmic value: minus log10 of concentration in mol/L. Answer with that number alone.

[[record]]
test_smiles = "Cc1cc(N(c2nccn3nccc23)[C@H]2C[C@H](c3ccn(C)n3)C2)c(F)cc1NC(=O)c1ccnn(-c2ccc(F)cn2)c1=O"
study_target = "Hepatocyte growth factor receptor (Homo sapiens, UniProt P08581, F1200I)"
recorded_value = 6.66


// switching to the query compound
Data request: Requested field: pIC50. Item: CC(C)(C#N)CN(c1cc(F)c(NC(=O)c2ccnn(-c3ccc(F)cc3)c2=O)cc1F)c1cccn2nccc12
Data returned: 6.49

====

Quick reference for IC50 among some molecules
target: Hepatocyte growth factor receptor (Homo sapiens, UniProt P08581, Y1230H); test: Displacement of tracer 236 from N-terminal GST-tagged recombinant human MET Y1230H mutant (956 to end residues) expressed in Sf9 insect cells incubated for 1 hr by TR-FRET assay
Sequence (P08581 25-1390 Y1230H limits assumed): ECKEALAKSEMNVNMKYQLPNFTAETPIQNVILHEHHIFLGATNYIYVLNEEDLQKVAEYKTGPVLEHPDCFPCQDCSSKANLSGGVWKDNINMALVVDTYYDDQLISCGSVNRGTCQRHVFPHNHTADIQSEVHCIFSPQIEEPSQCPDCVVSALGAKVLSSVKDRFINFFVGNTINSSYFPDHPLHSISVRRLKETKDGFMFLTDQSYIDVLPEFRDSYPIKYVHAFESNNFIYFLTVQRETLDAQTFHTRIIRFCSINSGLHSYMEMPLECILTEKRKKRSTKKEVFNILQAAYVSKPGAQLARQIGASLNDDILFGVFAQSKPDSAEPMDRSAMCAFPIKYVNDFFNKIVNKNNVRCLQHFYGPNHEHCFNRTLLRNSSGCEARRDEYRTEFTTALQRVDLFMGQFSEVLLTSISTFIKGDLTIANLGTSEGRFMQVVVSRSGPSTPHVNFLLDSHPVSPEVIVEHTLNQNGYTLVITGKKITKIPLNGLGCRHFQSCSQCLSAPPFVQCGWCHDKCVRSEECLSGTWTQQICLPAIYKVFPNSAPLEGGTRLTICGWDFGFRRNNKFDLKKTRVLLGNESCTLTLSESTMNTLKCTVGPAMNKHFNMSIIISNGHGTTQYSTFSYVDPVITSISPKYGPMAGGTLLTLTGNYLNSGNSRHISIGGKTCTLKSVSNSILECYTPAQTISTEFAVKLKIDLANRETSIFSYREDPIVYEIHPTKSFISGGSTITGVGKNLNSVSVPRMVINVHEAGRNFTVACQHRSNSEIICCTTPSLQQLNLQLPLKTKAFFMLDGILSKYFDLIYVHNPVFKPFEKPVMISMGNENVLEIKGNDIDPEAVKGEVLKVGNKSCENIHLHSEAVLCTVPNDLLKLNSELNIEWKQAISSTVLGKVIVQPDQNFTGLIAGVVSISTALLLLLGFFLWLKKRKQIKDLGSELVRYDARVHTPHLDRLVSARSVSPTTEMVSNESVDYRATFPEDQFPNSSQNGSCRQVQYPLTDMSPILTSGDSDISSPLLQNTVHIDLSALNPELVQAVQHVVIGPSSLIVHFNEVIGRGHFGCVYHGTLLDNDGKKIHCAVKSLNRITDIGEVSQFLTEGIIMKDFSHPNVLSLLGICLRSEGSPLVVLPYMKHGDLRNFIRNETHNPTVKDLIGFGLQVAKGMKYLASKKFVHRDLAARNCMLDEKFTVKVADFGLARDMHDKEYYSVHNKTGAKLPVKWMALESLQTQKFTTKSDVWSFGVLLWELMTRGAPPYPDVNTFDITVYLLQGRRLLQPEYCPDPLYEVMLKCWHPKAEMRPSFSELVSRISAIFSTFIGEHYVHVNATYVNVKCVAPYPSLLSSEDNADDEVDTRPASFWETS
Enter your answer as a number in nM; do not include the unit.

[[record]]
test_smiles = "COc1cc(N(c2cc(F)c(NC(=O)c3ccnn(-c4ccc(F)cn4)c3=O)cc2F)[C@H]2C[C@H](c3ccn(C)n3)C2)c2ccnn2c1"
recorded_value = 17

[[record]]
test_smiles = "Cn1ccc([C@H]2C[C@H](N(c3cc(F)c(NC(=O)c4ccnn(-c5ccc(F)cn5)c4=O)cc3Cl)c3nccn4nccc34)C2)n1"
recorded_value = 7

[[record]]
test_smiles = "Cn1ccc([C@H]2C[C@H](N(c3cc(F)c(NC(=O)c4ccnn(-c5ccc(F)cn5)c4=O)cc3F)c3cc(F)cn4nccc34)C2)n1"
recorded_value = 11

[[record]]
test_smiles = "Cn1ccc([C@H]2C[C@H](N(c3cc(Cl)c(NC(=O)c4ccnn(-c5ccc(F)cn5)c4=O)cc3F)c3nccn4nccc34)C2)n1"
recorded_value = 13

[[record]]
test_smiles = "CC(C)(C#N)CN(c1cc(F)c(NC(=O)c2ccnn(-c3ccc(F)cc3)c2=O)cc1F)c1cccn2nccc12"
recorded_value = 7


Please find the next molecule below.
Data request: Consider the molecule shown here: CO[C@H]1C[C@@H](N(c2cc(F)c(NC(=O)c3ccnn(-c4ccc(F)cn4)c3=O)cc2F)c2cccn3nccc23)C1 What is its recorded IC50?
Data returned: 6

====

assay: Displacement of tracer 236 from N-terminal GST-tagged recombinant human MET exon 14 deletion mutant (956 to end residues) expressed in Sf9 insect cells incubated for 1 hr by TR-FRET assay
Reported metric: IC50
A complete answer gives the number and then names the unit.

[[record]]
test_smiles = "O=C(Nc1cc(F)c(Oc2cccn3nccc23)cc1F)c1ccnn(-c2ccc(F)cc2)c1=O"
recorded_value = "27 nM"

[[record]]
test_smiles = "Cc1cc2c(N(c3cc(F)c(NC(=O)c4ccnn(-c5ccc(F)cn5)c4=O)cc3F)[C@H]3C[C@H](c4ccn(C)n4)C3)nccn2n1"
recorded_value = "397 nM"


Data request: Request the reported IC50 associated with Cn1ccc([C@H]2C[C@H](N(c3cc(Cl)c(NC(=O)c4ccnn(-c5ccc(F)cn5)c4=O)cc3F)c3nccn4nccc34)C2)n1
Data returned: 12 nM

Data request: Consider the compound Cn1ccc([C@H]2C[C@H](N(c3cc(C(F)F)c(NC(=O)c4ccnn(-c5ccc(F)cn5)c4=O)cc3F)c3nccn4nccc34)C2)n1 and give its measured IC50.
Data returned: 13 nM

Data request: # get_value(readout='IC50', item= CC(C)N(c1cc(F)c(NC(=O)c2ccnn(-c3ccc(F)cc3)c2=O)cc1F)c1cccn2nccc12 )
Data returned: 71 nM

====

# pIC50 per record follows
target: Hepatocyte growth factor receptor (Homo sapiens, UniProt P08581, F1200I); experiment: Displacement of tracer 236 from N-terminal GST-tagged recombinant human MET F1200I mutant (956 to end residues) expressed in Sf9 insect cells incubated for 1 hr by TR-FRET assay
Hey, just a heads up that pIC50 is the negative log base 10 of the concentration in molar.

Consider the reported pIC50 for these compounds:
[[record]]
test_smiles = "O=C(Nc1cc(F)c(N(c2cccn3nccc23)C2CCC2)cc1F)c1ccnn(-c2ccc(F)cc2)c1=O"
recorded_value = 6.65

[[record]]
test_smiles = "CC(C)N(c1cc(F)c(NC(=O)c2ccnn(-c3ccc(F)cc3)c2=O)cc1F)c1cccn2nccc12"
recorded_value = 6.12

[[record]]
test_smiles = "CC(C)(C#N)CN(c1cc(F)c(NC(=O)c2ccnn(-c3ccc(F)cn3)c2=O)cc1F)c1cccn2nccc12"
recorded_value = 7.02

[[record]]
test_smiles = "Cn1ccc(CCN(c2cc(F)c(NC(=O)c3ccnn(-c4ccc(F)cn4)c3=O)cc2F)c2cccn3nccc23)n1"
recorded_value = 7.24

[[record]]
test_smiles = "Cn1ccc([C@H]2C[C@H](N(c3cc(Cl)c(NC(=O)c4ccnn(-c5ccc(F)cn5)c4=O)cc3F)c3nccn4nccc34)C2)n1"
recorded_value = 6.32


Data request: Entry Cc1cc2c(N(c3cc(F)c(NC(=O)c4ccnn(-c5ccc(F)cn5)c4=O)cc3F)[C@H]3C[C@H](c4ccn(C)n4)C3)nccn2n1 : reported pIC50 = ?
Data returned: 5.30
